So I've got a bunch of molecules here, and I need their normalized growth values.
- assay remarks: chemical genetic growth profiling, strain panel (AID 1159580);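 further: tested at 20 µM; growth read once vehicle control cultures reached saturation at 30 °C; 1 = growth at the plate median or of vehicle wells; lower values mean less growth of the strain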
- measurement parameters: S. cerevisiae deletion strains, growth OD, locus YNR052C, strain pop2, hits give low values
About 2,000 (36%) of roughly 5,500 compounds were called active. Roughly 18% stayed inconclusive and do not appear here. Some of the results follow.
Numbers only.

Reference set (10 entries):
molecule: Cc1cc(=O)c2c(O)cc(O)c(C)c2o1
normalized growth: 0.978
--
molecule: CC(=O)O[C@]1(C(C)=O)CCC2C3C=C(C)C4=CC(=O)CCC4(C)C3CCC21C (stereo not given in full)
normalized growth: 0.99
--
molecule: CCC1(c2ccc(N)cc2)CCC(=O)NC1=O (stereo not given)
normalized growth: 0.988
--
molecule: CC(C)=CCc1c(O)cc2oc(C)cc(=O)c2c1O
normalized growth: 1
--
molecule: COc1c(O)cc2oc3cc(O)c(CC=C(C)C)c(O)c3c(=O)c2c1CC=C(C)C
normalized growth: 0.781
--
molecule: CCC1(c2ccccc2)C(=O)NCNC1=O
normalized growth: 0.998
--
molecule: COc1ccc(-c2coc3c(OC)c(OC)ccc3c2=O)cc1
normalized growth: 1.01
--
molecule: COc1ccc(-c2coc3c(OC)c(OC)cc(O)c3c2=O)cc1
normalized growth: 0.977
--
molecule: CN=C(NC#N)NCCSCc1nc[nH]c1C
normalized growth: 1
--
molecule: Oc1c(Cl)c(Cl)c(Cl)c(Cl)c1Cl
normalized growth: 0.802

Provide reported normalized growth for each item, in the same order as listed.
1. COc1cc(O)c2c(=O)cc(C)oc2c1CC=C(C)C
2. COc1ccc(-c2coc3c(OC)c(O)ccc3c2=O)cc1
3. COc1ccc2cc1Oc1ccc(cc1)C[C@H]1c3cc(c(OC)cc3CCN1C)Oc1c(OC)c(OC)cc3c1[C@H](C2)N(C)CC3
4. CCC1(C)CC(=O)NC1=O (stereo not given)
5. CC(C)=CCc1c(O)cc(C)oc1=O
6. O=C(O)C1CC([C@@H]2CCCCN2)CN2CCCCC12 (stereo not given in full)
7. COc1ccc(C(=O)c2ccccc2O)c(O)c1
8. Cc1c(O)cc(O)c2c(=O)c(-c3ccc(O)cc3)coc12

1: 0.988; 2: 0.964; 3: 0.968; 4: 1.02; 5: 0.99; 6: 0.975; 7: 0.96; 8: 1.01

Provide reported normalized growth for each item, in the same order as listed.
1. COc1cccc2c1CCC1CC(=O)CCC21C (stereo not given)
2. NC(N)=Nc1nc(CSCCC(N)=NS(N)(=O)=O)cs1
3. COc1ccc(C[C@H]2NC[C@H](O)[C@H]2OC(C)=O)cc1
4. Cc1ccc2c(c1)CC[C@H]1CC(=O)CC[C@]21C
5. CC(=O)O[C@@](C)(CCC=C(C)C)C1CC=C(C)CC1 (stereo not given in full)
6. CCc1ccc(CCOc2ccc(CC3SC(=O)NC3=O)cc2)nc1 (stereo not given)
7. CNC1(C)C2CCC(C2)C1(C)C (stereo not given)

1: 0.969; 2: 1.02; 3: 0.448; 4: 0.976; 5: 0.995; 6: 1.01; 7: 0.992
